# Target entity: UniProtKB P43140
# Test method notes: cell-based
# Experimental context: phenylephrine-induced contraction; Schild plot; read-out: In Vitro Characterization (pA2) Rat Vas (converted)
Counter-ions that a name gives are not always drawn.
Recorded endpoint: Kb (nM)
Field: numeric (nM). Do not append units.

Field: example entries. Status: answers known.
>>> df
                                   molecule  units  numeric_readout
0  COc1cccc2c1[C@@H]1CN(CCCCn3c(=O)[nH]c4c(sc5cnccc54)c3=O)C[C@@H]1CO2 [Example 29, dihydrochloride]     nM            0.437
1  COc1cccc2c1[C@@H]1CN(CCCCn3c(=O)[nH]c4c(sc5nc(C)ccc54)c3=O)C[C@H]1CO2 [Example 45, hydrochloride]     nM            0.257
2  COc1cccc2c1[C@@H]1CN(CCCCn3c(=O)[nH]c4c(sc5ccncc54)c3=O)C[C@@H]1CO2 [Example 28, dihydrochloride]     nM            0.407

With those in mind, consider the next molecule.
Exercise: Give recorded Kb with UniProtKB P43140 for the following molecule: COc1cccc2c1[C@@H]1CN(CCCCn3c(=O)[nH]c4c(sc5cnccc54)c3=O)C[C@H]1CO2 [Example 42, dihydrochloride]
Solution: 0.257

====

# Target entity: α-1A adrenoreceptor (rat submaxillary gland) (Rattus norvegicus, UniProt P43140)
# Sequence (P43140 1-466): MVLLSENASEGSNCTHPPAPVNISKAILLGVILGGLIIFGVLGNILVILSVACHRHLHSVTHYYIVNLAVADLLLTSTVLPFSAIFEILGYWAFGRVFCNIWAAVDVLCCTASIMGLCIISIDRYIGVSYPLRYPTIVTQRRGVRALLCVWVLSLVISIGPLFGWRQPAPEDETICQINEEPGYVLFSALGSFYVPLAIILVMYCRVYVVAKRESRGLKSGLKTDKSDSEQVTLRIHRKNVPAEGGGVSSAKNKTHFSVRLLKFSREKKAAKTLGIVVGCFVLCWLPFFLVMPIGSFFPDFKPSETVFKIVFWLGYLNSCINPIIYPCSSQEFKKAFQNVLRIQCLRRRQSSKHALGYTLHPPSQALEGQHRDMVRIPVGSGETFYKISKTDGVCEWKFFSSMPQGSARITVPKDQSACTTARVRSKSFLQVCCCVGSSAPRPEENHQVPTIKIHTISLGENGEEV
# Test method notes: biochemical
# Assay type: binding
# Experimental context: [3H]-prazosin radioligand; rat submaxillary gland membranes; read-out: Radioligand Binding (Ki, nM) 1A (Rat)
Where a name gives a salt, the structure may show the parent alone.
Recorded endpoint: Ki (nM)
Field: numeric (nM). Do not append units.

Exercise: Item COc1cccc2c1[C@@H]1CN(CCCCn3c(=O)[nH]c4c(sc5ncc(Cl)nc54)c3=O)C[C@@H]1CO2 [Example 16, hydrochloride] has what recorded Ki?
Solution: 0.373

Exercise: Item `COc1cccc2c1[C@@H]1CN(CCCCn3c(=O)[nH]c4c(sc5ccnc(OC)c54)c3=O)C[C@H]1CO2` has what recorded Ki?
Solution: 0.037

Exercise: Item COc1cccc2c1[C@@H]1CN(CCCCn3c(=O)[nH]c4c(sc5ncc(-c6ccoc6)nc54)c3=O)C[C@@H]1CO2 [Example 62, dihydrochloride] has what recorded Ki?
Solution: 983

Exercise: Item COc1cccc2c1[C@@H]1CN(CCCCn3c(=O)[nH]c4c(sc5nccnc54)c3=O)C[C@H]1CO2 [Example 14, dihydrochloride] has what recorded Ki?
Solution: 0.105

Exercise: Item COc1cccc2c1[C@@H]1CN(CCCCn3c(=O)[nH]c4c(sc5ccnc(Cl)c54)c3=O)C[C@@H]1CO2 [Example 48, hydrochloride] has what recorded Ki?
Solution: 0.475

Exercise: Item COc1ccc2sc3c(=O)n(CCCCN4C[C@H]5COc6cccc(OC)c6[C@@H]5C4)c(=O)[nH]c3c2n1 [Example 26, hydrochloride] has what recorded Ki?
Solution: 0.09
